experiment: Induction of 16.7 mM glucose-stimulated insulin secretion in NMRI mouse pancreatic islets at 10^-8 M after 60 mins by radioimmunoassay relative to 16.7 mM glucose control; assay type: functional, Pancreatic islet
Rule: fold change (FC) below 2 gives yes. Equal to or above 2 gives no.

Observe how each entry below is paired with its result.
1. O=C(/C=C/c1ccc(O)c(O)c1)O[C@@H](C(=O)O)[C@@H](OC(=O)/C=C/c1ccc(O)c(O)c1)C(=O)O yes
2. O=C(/C=C/c1ccc(O)c(O)c1)O[C@H](Cc1ccc(O)c(O)c1)C(=O)O no
3. O=C(O)/C=C/c1ccc(O)c(O)c1 yes

Field: below-cutoff. Rule: recorded fold change (FC) strictly less than 2. Subject: O=C(/C=C/c1ccc(O)c(O)c1)O[C@@H](C(=O)O)[C@@H](O)C(=O)O no

For O=c1cc(-c2ccc(O)cc2)oc2c([C@@H]3O[C@H](CO)[C@@H](O)[C@H](O)[C@H]3O)c(O)c([C@@H]3O[C@H](CO)[C@@H](O)[C@H](O)[C@H]3O)c(O)c12 , is the recorded fold change (FC) below the cut-off of 2? no
